Catalogue of compounds with associated IC50 at 24 h
ASSAY_PROTOCOL: Cytotoxicity against mouse RAW264.7 cells incubated for 24 hrs by MTT assay
Format: toxicity, cell-based

ITEM_SMILES | IC50 at 24 h
COc1ccc2c(c1)oc(=O)n2CCNC(=O)/C=C/c1ccc(C(F)(F)F)cc1 | 69.5 µM
COc1ccc2c(c1)oc(=O)n2CCNC(=O)/C=C/c1ccc(C)o1 | > 100 µM
COc1ccc2c(c1)oc(=O)n2CCNC(=O)/C=C/c1ccccc1Cl | > 100 µM
COc1ccc2c(c1)oc(=O)n2CCNC(=O)/C=C/c1ccc(F)cc1 | > 100 µM

Next compound, IC50 at 24 h to be filled in.
Q: Which IC50 at 24 h value belongs to COc1ccc2c(c1)oc(=O)n2CCNC(=O)/C=C/c1ccc(Br)o1 ?
Ans: > 100 µM
